The measured values listed here are drawn from patent US9776965B2.

The entries below are paired with their reported IC50.
Target: 11b-HSD1 (Mus musculus, UniProt P50172)
Construct: Fibroblasts were differentiated into adipocytes; endogenous in cells; host or cells: differentiated 3T3-L1 cells (ATCC-CL-173)
Sequence (P50172 whole entry): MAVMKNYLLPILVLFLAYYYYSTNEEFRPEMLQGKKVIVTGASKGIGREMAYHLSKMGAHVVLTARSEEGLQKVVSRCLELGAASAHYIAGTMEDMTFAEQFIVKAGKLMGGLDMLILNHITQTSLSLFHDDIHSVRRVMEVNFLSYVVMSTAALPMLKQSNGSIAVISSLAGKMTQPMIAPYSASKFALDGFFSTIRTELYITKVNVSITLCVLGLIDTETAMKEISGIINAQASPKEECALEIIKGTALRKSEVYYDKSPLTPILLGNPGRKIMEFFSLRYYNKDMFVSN
Assay: Cellular assay, 11b-HSD1 activity in differentiated 3T3-L1 cells
Type: cell-based
Details: 4 hour pre-incubation, read-out: [C2] HSD1 cellular 3T3-L1 Score

Before answering, review these 5 worked examples.
Request: Fill in the blank: the reported IC50 of Cc1ccccc1C[C@@]1(C)CCN([C@@H](C)c2ccccc2)C1=O is ____.
Response: 1000 to 10000 nM

Request: Also C[C@@H](c1ccccc1)[C@H]1CCN([C@@H](C)c2ccccc2)C1=O ?
Response: > 10000 nM

Request: Also Cc1ccccc1C(C)[C@H]1CCN([C@@H](C)c2ccccc2)C1=O (stereo partly drawn) ?
Response: < 1000 nM

Request: Also O=C1C(Cc2cccc(Cl)c2Cl)CCN1CCc1ccccc1 (stereo not drawn) ?
Response: < 1000 nM

Request: Also COC[C@@H](c1ccccc1)N1CC[C@H](Cc2c(Cl)cccc2Cl)C1=O ?
Response: > 10000 nM

Further cases:
Request: Fill in the blank: the reported IC50 of O=C1C(Cc2ccccc2)CCN1Cc1ccccc1 (stereo not drawn) is ____.
Response: 1000 to 10000 nM

Request: Also O=C1C(Cc2ccccc2)CCN1CCc1ccccc1 (stereo not drawn) ?
Response: 1000 to 10000 nM

Request: Also Cc1ccc(CC2CCN(Cc3ccccc3)C2=O)cc1 (stereo not drawn) ?
Response: < 1000 nM

Request: Also C[C@@H](c1ccccc1)N1CC[C@@H](Cc2c(F)cccc2F)C1=O ?
Response: < 1000 nM

---

Molecular target: 11b-HSD1 (Mus musculus)
Construct: Fibroblasts were differentiated into adipocytes; endogenous in cells
Experiment: Cellular assay, 11b-HSD1 activity in differentiated 3T3-L1 cells
Conditions: 4 hour pre-incubation, read-out: [C2] HSD1 cellular 3T3-L1 Score
Property: IC50

Before answering, review these 8 worked examples.
Request: Fill in the blank: the reported IC50 of C[C@@H](c1ccccc1)N1CC[C@@H](Cc2cccc(Cl)c2Cl)C1=O is ____.
Response: 1 to 10 µM

Request: Also Cc1ccccc1CC1CCCN(CCc2ccccc2)C1=O (stereo not drawn) ?
Response: 1 to 10 µM

Request: Also C[C@H](c1ccccc1)N1CC[C@@H](Cc2cccc(Cl)c2Cl)C1=O ?
Response: 1 to 10 µM

Request: Also COc1ccc(C[C@H]2CCN([C@H](C)c3ccccc3)C2=O)cc1 ?
Response: < 1 µM

Request: Also C[C@@H](c1ccccc1)N1CC[C@@H]([C@](C)(O)c2ccc(CCBr)cc2)C1=O ?
Response: 1 to 10 µM

Request: Also Cc1ccc(CCN2CCC(Cc3c(Cl)cccc3Cl)C2=O)cc1 (stereo not drawn) ?
Response: > 10 µM

Request: Also C[C@H](c1ccccc1)N1CC[C@H](Cc2ccccc2C#N)C1=O ?
Response: 1 to 10 µM

Request: Also COc1ccccc1C[C@@H]1CCN([C@@H](C)c2ccccc2)C1=O ?
Response: 1 to 10 µM

Note: attention shifts to another entry.
Request: Fill in the blank: the reported IC50 of CO[C@H](C[C@H]1CCN([C@@H](C)c2ccccc2)C1=O)c1ccccc1 is ____.
Response: < 1 µM

---

The entries below are paired with their reported IC50.
Molecular target: 11b-HSD1 (Mus musculus)
Construct: Fibroblasts were differentiated into adipocytes; endogenous in cells
Assay: Cellular assay, 11b-HSD1 activity in differentiated 3T3-L1 cells
Conditions: 4 hour pre-incubation, read-out: [C2] HSD1 cellular 3T3-L1 Score

Before answering, review these 5 worked examples.
Request: Fill in the blank: the reported IC50 of C[C@@H](c1ccccc1)N1CC[C@@H](Cc2c(Cl)cccc2Cl)C1=O is ____.
Response: < 1000 nM

Request: Also Cc1cccc(C[C@H]2CCN([C@H](C)c3ccccc3)C2=O)c1 ?
Response: 1000 to 10000 nM

Request: Also C[C@@H](c1ccccc1)N1CC[C@@H](Cc2ccccc2)C1=O ?
Response: 1000 to 10000 nM

Request: Also Cc1ccccc1C[C@H]1CCN([C@H](C)c2ccccc2)C1=O ?
Response: < 1000 nM

Request: Also C[C@H](c1ccccc1)N1CC[C@H](Cc2c(Cl)cccc2Cl)C1=O ?
Response: < 1000 nM

Further cases:
Request: Fill in the blank: the reported IC50 of O=C1C(Cc2c(Cl)cccc2Cl)CCN1CCCc1ccccc1 (stereo not shown) is ____.
Response: < 1000 nM

Request: Also C[C@@H](c1ccccc1)N1CC[C@H](Cc2ccccc2Cl)C1=O ?
Response: < 1000 nM

---

Target: 11b-HSD1 (Mus musculus, UniProt P50172)
Construct: Fibroblasts were differentiated into adipocytes; endogenous in cells
Assay: Cellular assay, 11b-HSD1 activity in differentiated 3T3-L1 cells
Conditions: 4 hour pre-incubation, read-out: [C2] HSD1 cellular 3T3-L1 Score
Property: IC50

Request: Fill in the blank: the reported IC50 of Cc1ccc([C@H](O)[C@@H]2CCN([C@@H](C)c3ccccc3)C2=O)c(C)c1 is ____.
Response: < 1000 nM

Further cases:
Request: Fill in the blank: the reported IC50 of CC(C)(c1ccccc1)N1CCC(Cc2c(Cl)cccc2Cl)C1=O (stereo not shown) is ____.
Response: < 1000 nM

Request: Also COC[C@@H](c1ccccc1)N1CC[C@@H](Cc2c(Cl)cccc2Cl)C1=O ?
Response: > 10000 nM

Request: Also COc1ccccc1CC[C@@H]1CCN([C@@H](C)c2ccccc2)C1=O ?
Response: 1000 to 10000 nM

---

The entries below are paired with their reported IC50.
Biological target: 11b-HSD1 (Homo sapiens)
Assay: Enzymatic assay, 11b-HSD1 dependent conversion of cortisone into cortisol (reductase activity)
Conditions: recombinant protein, 2 μM cortisone, 45 min at 37 C; read-out: [C1] HSD1-prot Reduct Score
Protocol: The effects of compounds on 11b-HSD1 dependent conversion of cortisone into cortisol (reductase activity) was studied in a reaction mixture containing 30 mM Tris-HCl buffer pH 7.2, 180 μM NADPH, 1 mM EDTA, 2 μM cortisone, 1 μl drug and/or solvent and 11 μg recombinant protein in a final volume of 100 μl. All incubations were performed for 45 min at 37 C in a water bath. The reaction was stopped by adding 100 μl acetonitrile containing 20 μg corticosterone as internal standard. […]

Before answering, review these 10 worked examples.
Request: Fill in the blank: the reported IC50 of C[C@@H](c1ccccc1)N1CC[C@@H]([C@](C)(O)c2ccc(CCBr)cc2)C1=O is ____.
Response: > 10 µM

Request: Also O=C1C(Cc2ccccc2)CCN1Cc1ccccc1 (stereo not drawn) ?
Response: > 10 µM

Request: Also Cc1cccc(C)c1CC1CCN(CCc2ccccc2)C1=O (stereo not drawn) ?
Response: < 1 µM

Request: Also COc1cc(CC2(Cc3ccc(OCc4ccccc4)c(OC)c3)CCN(CCc3ccccc3)C2=O)ccc1OCc1ccccc1 ?
Response: > 10 µM

Request: Also Cc1ccccc1C[C@@]1(C)CCN([C@@H](C)c2ccccc2)C1=O ?
Response: > 10 µM

Request: Also C[C@H](c1ccccc1)N1CC[C@H](Cc2ccccc2)C1=O ?
Response: > 10 µM

Request: Also O=C1C(Cc2cc3c(cc2Cl)OCO3)CCN1CCc1ccccc1 (stereo not drawn) ?
Response: 1 to 10 µM

Request: Also C[C@H](c1ccccc1)N1CC[C@H](Cc2cccc(Cl)c2Cl)C1=O ?
Response: 1 to 10 µM

Request: Also COC[C@@H](c1ccccc1)N1CC[C@@H](Cc2c(Cl)cccc2Cl)C1=O ?
Response: > 10 µM

Request: Also Cc1ccc(C[C@@H]2CCN([C@H](C)c3ccccc3)C2=O)cc1 ?
Response: > 10 µM

Further cases:
Request: Fill in the blank: the reported IC50 of COc1ccccc1CC1CCN(Cc2ccccc2)C1=O (stereo not drawn) is ____.
Response: > 10 µM

Request: Also O=C1C(Cc2ccc(F)cc2F)CCN1CCc1ccccc1 (stereo not drawn) ?
Response: 1 to 10 µM

Request: Also CC[C@H](c1ccccc1)N1CC[C@@H](Cc2c(Cl)cccc2Cl)C1=O ?
Response: < 1 µM

---

Target: 11b-HSD1 (Homo sapiens, UniProt P28845)
Sequence (P28845 whole entry): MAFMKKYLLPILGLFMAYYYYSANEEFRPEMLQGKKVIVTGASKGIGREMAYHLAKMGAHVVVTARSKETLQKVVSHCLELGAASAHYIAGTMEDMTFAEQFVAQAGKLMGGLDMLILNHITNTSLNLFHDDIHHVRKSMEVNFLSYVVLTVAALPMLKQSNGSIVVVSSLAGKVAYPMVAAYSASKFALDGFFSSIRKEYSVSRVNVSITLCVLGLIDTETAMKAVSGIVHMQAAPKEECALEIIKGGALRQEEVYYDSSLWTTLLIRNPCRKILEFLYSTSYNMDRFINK
Assay: Enzymatic assay, 11b-HSD1 dependent conversion of cortisone into cortisol (reductase activity)
Details: recombinant protein, 2 μM cortisone, 45 min at 37 C; read-out: [C1] HSD1-prot Reduct Score
The entries below are paired with their reported IC50.

Request: Fill in the blank: the reported IC50 of O=C1C(Cc2c(Cl)cccc2Cl)CCN1[C@H](Cc1ccccc1)c1ccccc1 (single isomer, unassigned) is ____.
Response: > 10 µM

Further cases:
Request: Fill in the blank: the reported IC50 of C[C@@H](c1ccccc1)N1CC[C@H](Cc2ccc(F)cc2Cl)C1=O is ____.
Response: < 1 µM

Request: Also C[C@@H](c1ccccc1)N1CC[C@@H](CCc2ccc(N(C)C)cc2)C1=O ?
Response: > 10 µM

Request: Also C[C@H](c1ccccc1)N1CC[C@H](Cc2ccccc2Cl)C1=O ?
Response: 1 to 10 µM

Request: Also COc1ccc(C[C@H]2CCN([C@H](C)c3ccccc3)C2=O)cc1 ?
Response: > 10 µM
